Tested on: K-562 leukemia
test.description: NCI tumour cell line growth inhibition, 48 h
# TGI listing for each entry below

Below, 10 molecules whose answers are already recorded.
>>> recorded_value("CCOc1cnc(C(O)(c2ccccc2)c2ccccc2)o1")
"> 100 µM"
>>> recorded_value("C=C(CN1CCc2[nH]c3ccc(F)cc3c2C1)c1ccc(C(=O)Nc2ccccc2N)cc1")
"14.6 µM"
>>> recorded_value("CN1C(=O)CC(=O)N1/C(=C/c1ccccc1)c1ccccc1")
"> 100 µM"
>>> recorded_value("N#Cc1ccc(Sc2nc3ccccc3[nH]2)cc1")
"> 100 µM"
>>> recorded_value("C=C(C#N)C(=O)OCC(CC)CC.C=C(C#N)C(=O)OCC(CC)CC.CS(C)=O.CS(C)=O.Nc1c(N=Nc2ccc(-c3ccc(N=Nc4cc(S(=O)(=O)[O-])c5ccccc5c4N)cc3)cc2)cc(S(=O)(=O)[O-])c2ccccc12.[Pt+2]")
"> 100 µM"
>>> recorded_value("Cn1c2ccccc2c(=O)c2c(O)cc3c(c21)C1OCC(C)(O)C1O3 (stereo not given)")
"> 100 µM"
>>> recorded_value("COC(=O)[C@@H]1[C@@H]2NC(=S)N[C@@]1(C)Oc1ccccc12")
"> 100 µM"
>>> recorded_value("CC(=O)c1ccc(Nc2c3c(nc4ccccc24)CCCC3)cc1")
"> 100 µM"
>>> recorded_value("CCOC(=O)/C(=C\\c1cccc(C)c1)C(C)=O")
"> 100 µM"
>>> recorded_value("Cc1nc2ccccc2c(=O)n1/N=C(\\N=Nc1ccccc1Cl)c1ccccc1Cl")
"> 100 µM"

Okay, next one:
Sure, the documented TGI for CC12OC(=O)C(C#N)C1(C)C1C(=O)CCCC12 (stereo not given) is > 100 µM

====

Each entry below carries its recorded TGI.
System: DLD-1 colon
test.description: NCI tumour cell line growth inhibition, 48 h

>>> recorded_value("CC(=O)OC1COC(N2CCc3cc([N+](=O)[O-])ccc32)C(OC(C)=O)C1OC(C)=O (stereo not drawn)")
"> 100 µM"
>>> recorded_value("Cc1nc2ccccc2c(=O)n1/N=C(\\N=Nc1ccccc1Cl)c1ccccc1Cl")
"> 100 µM"

Briefly, TGI measured for O=NN(CCCl)C(=O)NC1CCC(CC(=O)O)CC1 (stereo not drawn) : > 100 µM

The recorded TGI for entry CC(C)(CN1CCCCC1)C(=O)/C=C/c1ccc(Br)cc1 equals 10.3 µM

Lab book: TGI of Cc1ccccc1C(CCCO)C(=O)O (stereo not drawn) noted as > 100 µM

For reference, reported TGI for O=[N+]([O-])c1ccc(-c2ccc(C3=Nn4c(CNc5ccccc5Cl)nnc4SC3)o2)cc1 stands at > 100 µM

Given item C=CCNC(=O)C(C)C1CCC2(C)C=CC(=O)C(C)=C2C1O (stereo not drawn) , the value recorded as its TGI is > 100 µM

For this compound ( CCCC(=O)CC(C)C(=O)C(=O)NC12CC3CC(CC(C3)C1)C2 (stereo not drawn) ), measured TGI is > 100 µM

====

System: SK-MEL-5 melanoma
test.description: NCI tumour cell line growth inhibition, 48 h; in the data active means GI50 below about 0.43 µM; inactive means the rest
Outcomes you can answer with include only these: true (1) for active, false (0) for inactive

Answered examples (2):
>>> category("COc1cc(/C=C/c2cc(/C=C/c3ccc(O)c(OC)c3)n(C(=O)c3ccccc3Br)n2)ccc1O")
"false (0)"
>>> category("CSc1nc2nc(-c3ccccc3)c(C)c-2c2n1C(C)C(=O)N2 (stereo not given)")
"false (0)"

INPUT: Status in this test for COc1cc(-c2nccc3[nH]c(-c4ccc5cc[nH]c5c4)nc23)cc(OC)c1OC ?
OUTPUT: true (1)

INPUT: Please let me know the test result on file for CCCCCCCCCCCCCCNC(=O)Nc1ccc(Cl)c(Cl)c1 .
OUTPUT: false (0)

INPUT: Would you mind telling me which call this test gave C#Cc1ccc(-n2c(/C=C/c3ccc(O)cc3)nc3ncccc3c2=O)cc1 ?
OUTPUT: false (0)

INPUT: I'd appreciate the recorded outcome for CCN(CC)c1ccc2nc3ccc(=[N+](CC)CC)cc-3oc2c1 from this test.
OUTPUT: true (1)

INPUT: Field: outcome | Entry: COCCOC1=C(Cl)C(=O)c2ccccc2C1=O
OUTPUT: false (0)

INPUT: Called result for CC(=O)Oc1ccc(C2=Cc3ccc(OC(C)=O)cc3OC2C)cc1 (stereo not given)
OUTPUT: false (0)

INPUT: Recorded test outcome, item O=C1c2cc3c(cc2-c2c1c1ccc(Cl)cc1c(=O)n2C[C@H](O)CO)OCO3
OUTPUT: true (1)

====

Tested on: HL-60(TB) leukemia
test.description: NCI tumour cell line growth inhibition, 48 h
measured.quantity: TGI

>>> recorded_value("COc1ccccc1CNCCN1C(=O)c2ccc3c4c(ccc(c24)C1=O)C(=O)N(CCNCc1ccccc1OC)C3=O")
"0.607 µM"
>>> recorded_value("c1cc(-c2ccc(-c3ccsc3)s2)cs1")
"67 µM"
>>> recorded_value("C=CCON(C(=O)OC(C)(C)C)C(C)(C)C")
"> 100 µM"
>>> recorded_value("CNCc1ccc(-c2cc(-c3nc(-c4ccc(S(=O)(=O)C(C)C)cc4)cnc3N)on2)cc1")
"10.6 µM"
>>> recorded_value("O=[N+]([O-])c1cccc2nc3ccccc3c(NCCCCCNc3c4ccccc4nc4cccc([N+](=O)[O-])c34)c12")
"0.0429 µM"

The compound CCc1ccc(Nc2cc(C)c3ccc(O)cc3n2)cc1 , tested on HL-60(TB) leukemia, showed TGI of 12.5 µM

Summary: Cc1c(C)c(S(=O)(=O)N(CCCCN)OCCCN)c(C)c2c1OC(C)(C)CC2 , HL-60(TB) leukemia, TGI = > 100 µM

Kindly note: HL-60(TB) leukemia, C[C@@H](CC(=O)OCc1ccccc1)OC1OC(COC(=O)C(C)(C)C)C(OC(=O)C(C)(C)C)C(OC(=O)C(C)(C)C)C1OC(=O)C(C)(C)C (stereo not given in full) , TGI value reported: > 100 µM

# lookup: OCCCCC#Cc1ccccc1C#Cc1cccc(C(F)(F)F)c1 on HL-60(TB) leukemia, TGI = 59.5 µM

TGI of CCOC(=O)c1c(NC(=O)c2ccccc2)c(C#N)c2n1CCCCC2 , assay on HL-60(TB) leukemia, is > 100 µM

====

System: SF-268 CNS
test.description: NCI tumour cell line growth inhibition, 48 h
Binary call on TGI: true (1) from 40 µM upward, false (0) beneath that.

Consider the worked cases shown below.
>>> category("[B]C(=O)NC(CC(C)C)C(=O)NCC(=O)NC1c2ccsc2C(=O)C1O (centres undefined) (tested in a mixture with another compound)")
"true (1)"
>>> category("C[C@H]1CC[C@@]2(OC1)O[C@H]1C[C@H]3[C@@H]4CC[C@@H]5C[C@@H](OC6OC(CO)C(O)C(O)C6OC6OC(CO)C(O)C(O)C6O)CC[C@]5(C)[C@H]4CC[C@]3(C)[C@H]1[C@@H]2C (some centres undefined)")
"false (0)"
>>> category("O=S(=O)(/N=C(\\NO)Nc1ccc(Cl)cc1)c1cc(C(F)(F)F)cc(C(F)(F)F)c1")
"true (1)"

INPUT: Check this compound for TGI at or above 40 µM: OC(c1ccccc1Br)(c1ccccc1Br)C(F)(F)F
OUTPUT: true (1)

INPUT: Evaluate NC(N)=NCCCC(NCc1c2ccccc2nc2ccccc12)C(=O)O (centres undefined) : TGI at minimum 40 µM?
OUTPUT: true (1)

INPUT: Form field: TGI at least 40 µM? Entry: C1CCC(N=C2N(C3CCCCC3)C(=NC3CCCCC3)N2C2CCCCC2)CC1
OUTPUT: true (1)

INPUT: Is the recorded value of TGI equal to or greater than 40 µM for this compound? COC(=O)c1cc2c(cc1Cl)Sc1nnc(Nc3ccccc3)n1S2(=O)=O
OUTPUT: false (0)

INPUT: Does the reported TGI for COC(=O)C1=C(C(=O)OC)C2(c3ccccc3)OC1(c1ccccc1)c1cc3ccccc3cc12 fall at or above the 40 µM mark?
OUTPUT: false (0)

INPUT: Given CCN1/C(=C/C#C/C(C)=C\c2sc3ccc(Cl)cc3[n+]2CC)Sc2ccc(Cl)cc21 , state whether its TGI is at least 40 µM.
OUTPUT: false (0)

INPUT: Given CN=c1sc2c(n1C)C(=O)c1ccccc1C2=O , state whether its TGI is at least 40 µM.
OUTPUT: false (0)

INPUT: Would you say COc1ccc(C(O)c2cc3c(N)c(C(=O)Nc4cccc5ccccc45)sc3nc2C)cc1 (centres undefined) shows TGI at minimum 40 µM?
OUTPUT: true (1)

INPUT: Does the reported TGI for CC(=O)Oc1c(C(=O)[O-])cc(C(C)C)cc1C(C)C.CC(=O)Oc1c(C(=O)[O-])cc(C(C)C)cc1C(C)C.CC(=O)Oc1c(C(=O)[O-])cc(C(C)C)cc1C(C)C.CC(=O)Oc1c(C(=O)[O-])cc(C(C)C)cc1C(C)C.[Cu+2].[Cu+2] fall at or above the 40 µM mark?
OUTPUT: true (1)

INPUT: In plain terms: is recorded TGI at least 40 µM for OCCCCC#Cc1ccccc1C#Cc1cccc(C(F)(F)F)c1 ?
OUTPUT: true (1)

INPUT: Assess whether reported TGI for [O]=[V]([OH])([OH])[OH] sits at 40 µM or higher.
OUTPUT: true (1)
